- Target System: VEGFR-2 (Homo sapiens, UniProt P35968)
- Sequence (P35968 20-1356): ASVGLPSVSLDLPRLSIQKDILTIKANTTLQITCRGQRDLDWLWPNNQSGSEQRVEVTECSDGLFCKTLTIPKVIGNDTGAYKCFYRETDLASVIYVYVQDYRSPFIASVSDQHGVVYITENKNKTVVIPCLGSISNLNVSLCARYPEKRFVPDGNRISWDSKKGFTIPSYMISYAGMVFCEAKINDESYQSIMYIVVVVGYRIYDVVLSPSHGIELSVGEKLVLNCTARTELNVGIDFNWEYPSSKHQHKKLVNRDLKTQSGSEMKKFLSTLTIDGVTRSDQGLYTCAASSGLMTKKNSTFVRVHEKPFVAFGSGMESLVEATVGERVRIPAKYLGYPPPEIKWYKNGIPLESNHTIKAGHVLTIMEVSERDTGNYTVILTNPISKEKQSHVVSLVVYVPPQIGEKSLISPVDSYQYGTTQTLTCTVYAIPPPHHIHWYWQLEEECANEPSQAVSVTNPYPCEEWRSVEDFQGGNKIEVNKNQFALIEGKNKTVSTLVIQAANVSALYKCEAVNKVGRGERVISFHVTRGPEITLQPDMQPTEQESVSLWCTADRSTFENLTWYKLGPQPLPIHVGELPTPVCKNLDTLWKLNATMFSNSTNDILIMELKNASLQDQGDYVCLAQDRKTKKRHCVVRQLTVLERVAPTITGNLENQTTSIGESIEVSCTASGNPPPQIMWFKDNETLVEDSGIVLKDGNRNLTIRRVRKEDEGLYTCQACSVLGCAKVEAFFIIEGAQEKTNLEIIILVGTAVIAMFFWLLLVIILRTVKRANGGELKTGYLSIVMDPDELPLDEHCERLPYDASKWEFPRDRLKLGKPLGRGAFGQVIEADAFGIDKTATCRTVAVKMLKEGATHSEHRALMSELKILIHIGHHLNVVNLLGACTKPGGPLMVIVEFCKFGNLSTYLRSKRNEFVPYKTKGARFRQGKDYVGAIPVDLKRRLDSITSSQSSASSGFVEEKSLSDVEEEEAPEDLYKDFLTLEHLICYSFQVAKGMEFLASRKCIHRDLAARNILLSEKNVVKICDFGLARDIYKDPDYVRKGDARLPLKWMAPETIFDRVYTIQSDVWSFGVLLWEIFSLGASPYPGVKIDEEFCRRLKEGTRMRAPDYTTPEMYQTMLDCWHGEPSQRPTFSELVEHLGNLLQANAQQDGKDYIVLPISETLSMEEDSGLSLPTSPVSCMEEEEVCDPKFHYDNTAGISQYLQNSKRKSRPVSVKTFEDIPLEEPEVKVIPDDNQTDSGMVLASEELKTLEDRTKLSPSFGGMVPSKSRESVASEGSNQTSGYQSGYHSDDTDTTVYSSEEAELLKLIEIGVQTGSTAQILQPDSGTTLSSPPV
Quantity Kind: IC50 (nM)

Please review the following examples before continuing.
Compound: COc1ccc(-c2ccc3nc(-c4ccc(Cl)cc4)cc(OCCCN4CCOCC4)c3c2)cc1 [20b]
IC50 [nM]: 2300
--
Compound: Fc1ccc(-c2cc(OCCCN3CCOCC3)c3cc(Br)ccc3n2)cc1 [16d]
IC50 [nM]: 4690

[1] CN1CCN(CCCOc2cc(-c3ccc(C(F)(F)F)cc3)nc3ccccc23)CC1 [10a]
[2] Clc1ccc(-c2cc(OCCCn3ccnc3)c3cc4c(cc3n2)OCO4)cc1 [12a]
[3] FC(F)(F)c1ccc(-c2cc(OCCCN3CCOCC3)c3cc4c(cc3n2)OCO4)cc1 [12d]
[4] COc1cc2nc(-c3ccc(C)cc3)cc(OCCCN3CCN(C)CC3)c2cc1OC [6k]
[5] Clc1ccc(-c2cc(OCCCN3CCOCC3)c3cc(-c4ccco4)ccc3n2)cc1 [20f]
Task field, ranking: reported IC50, descending order. Give me the labels in the order the question wants.
1, 4, 3, 5, 2
(1: 8550 nM, 4: 5960 nM, 3: 855 nM, 5: 89.3 nM, 2: 48.3 nM)

###

Record set of pIC50 for target or system EGFR (Homo sapiens).
pIC50: −log10 of the molar value.
Quantity Kind: pIC50

Reference set, count: 5
Molecule: COc1cc2nc(-c3ccc(-c4cccs4)cc3)cc(OCCCN3CCN(C)CC3)c2cc1OC
pIC50: 7.45
--
Molecule: Clc1ccc(-c2cc(OCCCN3CCOCC3)c3cc4c(cc3n2)OCO4)cc1 [12b]
pIC50: 7.02
--
Molecule: Fc1ccc(-c2cc(OCCCN3CCOCC3)c3cc(Br)ccc3n2)cc1 [16d]
pIC50: 7.46
--
Molecule: Fc1ccc(-c2cc(OCCCn3ccnc3)c3cc(Br)ccc3n2)cc1 [16c]
pIC50: 6.31
--
Molecule: COc1cc2nc(-c3ccc(C)cc3)cc(OCCCn3ccnc3)c2cc1OC
pIC50: 6.59

[1] COc1cc2nc(-c3ccc(C)cc3)cc(OCCCNC3CCN(C)CC3)c2cc1OC
[2] COc1cc2nc(-c3ccc(Cl)cc3)cc(OCCCNCC3CCCO3)c2cc1OC (centres unmarked)
Of 1 and 2 , which one carries the higher reported pIC50? Refer to your chosen entry by its label in the reply.
2
(2: 7.33, 1: 6.81)

[1] COc1ccc(-c2ccc3nc(-c4ccc(Cl)cc4)cc(OCCCN4CCOCC4)c3c2)cc1 [20b]
[2] FC(F)(F)c1ccc(-c2cc(OCCCN3CCOCC3)c3cc4c(cc3n2)OCO4)cc1 [12d]
[3] COc1ccc(-c2ccc3nc(-c4ccc(Cl)cc4)cc(OCCCn4ccnc4)c3c2)cc1 [20a]
Your job: order these 3 records by pIC50, ascending. Answer by writing out the labels in the requested order.
2, 1, 3

###

Entries with reported pIC50 on BTK (Homo sapiens)
Sequence (Q06187 whole entry): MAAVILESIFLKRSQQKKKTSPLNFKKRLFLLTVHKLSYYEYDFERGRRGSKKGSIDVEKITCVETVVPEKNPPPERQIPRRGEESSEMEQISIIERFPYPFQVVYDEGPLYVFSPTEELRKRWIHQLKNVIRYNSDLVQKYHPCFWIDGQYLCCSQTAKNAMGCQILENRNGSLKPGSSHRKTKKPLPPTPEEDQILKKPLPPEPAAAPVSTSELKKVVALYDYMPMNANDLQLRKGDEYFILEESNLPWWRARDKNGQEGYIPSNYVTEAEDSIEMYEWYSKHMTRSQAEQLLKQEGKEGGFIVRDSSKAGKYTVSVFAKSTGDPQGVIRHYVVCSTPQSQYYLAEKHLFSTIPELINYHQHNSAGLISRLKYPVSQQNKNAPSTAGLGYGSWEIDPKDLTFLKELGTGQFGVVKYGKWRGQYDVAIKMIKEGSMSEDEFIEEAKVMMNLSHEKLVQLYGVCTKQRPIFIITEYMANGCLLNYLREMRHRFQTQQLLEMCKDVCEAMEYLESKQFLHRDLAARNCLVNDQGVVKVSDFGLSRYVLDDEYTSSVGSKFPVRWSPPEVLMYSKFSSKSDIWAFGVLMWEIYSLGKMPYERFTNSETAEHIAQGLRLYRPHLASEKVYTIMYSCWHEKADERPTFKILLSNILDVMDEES
pIC50: −log10 of the molar value.
Quantity Kind: pIC50

Compound: COc1cc2nc(-c3ccc(C)cc3)cc(OCCCNC3CCCCC3)c2cc1OC
Target System: BTK (Homo sapiens)
pIC50: 5.79

[P] Clc1ccc(-c2cc(OCCCN3CCOCC3)c3cc4c(cc3n2)OCO4)cc1 [12b]
[Q] COc1cc2nc(-c3ccc(C)cc3)cc(OCCCn3ccnc3)c2cc1OC
[R] COc1cc2nc(-c3ccc(Cl)cc3)cc(OCCCNCC3CCCO3)c2cc1OC (stereo not drawn)
[S] FC(F)(F)c1ccc(-c2cc(OCCCN3CCOCC3)c3cc4c(cc3n2)OCO4)cc1 [12d]
Ascending by pIC50, please: list the compounds accordingly. Form entry: ranked labels (order as requested).
Q, R, S, P
(Q: 5.42, R: 5.86, S: 6.18, P: 6.67)

[a] COc1cc2nc(-c3ccc(-c4ccco4)cc3)cc(OCCCN3CCN(C)CC3)c2cc1OC
[b] COc1cc2nc(-c3ccc(C(F)(F)F)cc3)cc(OCCCNC3CCN(C)CC3)c2cc1OC
Which numeric pIC50 is bigger, that of a or that of b ? Field: selected label. Fill in the label of the entry you choose.
b

[P] CN1CCN(CCCOc2cc(-c3ccc(C(F)(F)F)cc3)nc3ccccc23)CC1 [10a]
[Q] COc1cc2nc(-c3ccc(C)cc3)cc(OCCCNC3CCN(C)CC3)c2cc1OC
Looking only at measured pIC50, which entry is lower, P or Q ? Mark your selection by writing its label.
P

The values you see were collected from paper PMC8725837.
